Test system: HCC1569;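 also: TDF is a line of transformed human dermal fibroblasts of mesenchymal origin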
Assay: H1.0 immunofluorescence intensity relative to DMSO (% of DMSO); higher = stronger H1.0 induction, active = 140 or more
Details: concentration: 10 µM; 24 h
Examples of compounds with documented H1.0 immunofluorescence intensity follow.

[
  {
    "compound": "CC1COc2c(C3(N)CC3)c(F)cc3c(=O)c(C(=O)O)cn1c23 (stereo not drawn)",
    "systemName": "HCC1569",
    "H1.0 immunofluorescence intensity": "104 (inactive)"
  },
  {
    "compound": "C=CC1(C)CC(=O)C2(O)C(C)(O1)C(OC(C)=O)C(O)C1C(C)(C)CCC(O)C12C (stereo not drawn)",
    "systemName": "HCC1569",
    "H1.0 immunofluorescence intensity": "96.6 (inactive)"
  },
  {
    "compound": "O=C(NNC(=O)c1ccc(CNS(=O)(=O)c2ccc(F)c(Cl)c2)cc1)c1ccccc1",
    "systemName": "HCC1569",
    "H1.0 immunofluorescence intensity": "105 (inactive)"
  },
  {
    "compound": "NNC(=O)c1ccncc1",
    "systemName": "HCC1569",
    "H1.0 immunofluorescence intensity": "110 (inactive)"
  },
  {
    "compound": "Clc1ccc(C(Cn2ccnc2)OCc2ccsc2Cl)c(Cl)c1 (stereo not drawn)",
    "systemName": "HCC1569",
    "H1.0 immunofluorescence intensity": "113 (inactive)"
  },
  {
    "compound": "C=CC(=O)N1C/C(=C\\c2ccc([N+](=O)[O-])cc2)C(=O)/C(=C/c2ccc([N+](=O)[O-])cc2)C1 [1-acryloyl-3,5-bis((E)-4-nitrobenzylidene)piperidin-4-one]",
    "systemName": "HCC1569",
    "H1.0 immunofluorescence intensity": "145 (active)"
  },
  {
    "compound": "CNS(=O)(=O)Cc1ccc2[nH]cc(CCN(C)C)c2c1.O=C(O)CCC(=O)O [Sumatriptan Succinate]",
    "systemName": "HCC1569",
    "H1.0 immunofluorescence intensity": "114 (inactive)"
  },
  {
    "compound": "N#Cc1ccc(N2N=C3c4ccc(C(=O)O)cc4CCC3C2C2CCCC2)cc1Cl (stereo not drawn)",
    "systemName": "HCC1569",
    "H1.0 immunofluorescence intensity": "101 (inactive)"
  },
  {
    "compound": "COc1cc2nccc(Oc3ccc(NC(=O)Nc4cc(C)on4)c(Cl)c3)c2cc1OC",
    "systemName": "HCC1569",
    "H1.0 immunofluorescence intensity": "116 (inactive)"
  },
  {
    "compound": "Cc1ccc(C(=O)COC(=O)c2cccc(NC(=O)c3ccc([N+](=O)[O-])cc3[N+](=O)[O-])c2)cc1",
    "systemName": "HCC1569",
    "H1.0 immunofluorescence intensity": "152 (active)"
  },
  {
    "compound": "COCc1nc2c([nH]1)c(=O)n(C)c(=O)n2CC(C)C",
    "systemName": "HCC1569",
    "H1.0 immunofluorescence intensity": "93.2 (inactive)"
  },
  {
    "compound": "CCC=CCC=CCC=CCC=CCC=CCC=CCCC(=O)O",
    "systemName": "HCC1569",
    "H1.0 immunofluorescence intensity": "105 (inactive)"
  },
  {
    "compound": "CCCCCC(O)C=CC1C=CC(=O)C1CCCCCCC(=O)O (stereo not drawn)",
    "systemName": "HCC1569",
    "H1.0 immunofluorescence intensity": "93.8 (inactive)"
  },
  {
    "compound": "CC(C)(C=O)Cc1cc(C(C)(C)C)c(O)c(C(C)(C)C)c1",
    "systemName": "HCC1569",
    "H1.0 immunofluorescence intensity": "97.1 (inactive)"
  },
  {
    "compound": "Clc1ccc(CON=C(Cn2ccnc2)c2ccc(Cl)cc2Cl)c(Cl)c1",
    "systemName": "HCC1569",
    "H1.0 immunofluorescence intensity": "113 (inactive)"
  },
  {
    "compound": "Cc1cc(C)c(S(=O)(=O)Nc2cccc(C(F)(F)F)c2)c(C)c1",
    "systemName": "HCC1569",
    "H1.0 immunofluorescence intensity": "104 (inactive)"
  },
  {
    "compound": "CC(C)(C)c1cnc(CSc2cnc(NC(=O)C3CCNCC3)s2)o1",
    "systemName": "HCC1569",
    "H1.0 immunofluorescence intensity": "100 (inactive)"
  },
  {
    "compound": "CCC=CCC=CCC=CCC=CCC=CCCCCCC(=O)O",
    "systemName": "HCC1569",
    "H1.0 immunofluorescence intensity": "103 (inactive)"
  }
]
